Target protein (sequence): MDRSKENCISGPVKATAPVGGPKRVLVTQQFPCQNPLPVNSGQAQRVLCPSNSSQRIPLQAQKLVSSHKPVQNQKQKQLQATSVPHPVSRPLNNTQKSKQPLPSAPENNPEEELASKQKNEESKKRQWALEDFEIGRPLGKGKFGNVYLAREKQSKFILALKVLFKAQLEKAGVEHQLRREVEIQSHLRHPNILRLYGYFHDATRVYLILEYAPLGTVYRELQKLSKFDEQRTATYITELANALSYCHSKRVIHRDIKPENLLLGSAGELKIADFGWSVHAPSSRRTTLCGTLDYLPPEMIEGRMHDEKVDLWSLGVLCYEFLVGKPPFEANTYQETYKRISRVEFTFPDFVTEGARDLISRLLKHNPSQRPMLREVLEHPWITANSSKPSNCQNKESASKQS
outcome.measure: pIC50
Give only the number. pIC50 is defined as minus log10 of concentration in molar units.

stdin: State, in one line, measured pIC50 of `COc1cc(OC)c(/C=C/C(=O)c2c(O)cccc2OC)c(OC)c1`
stdout: 4.18
